Molecular target: human Y2 receptor (human) (UniProt P49146)
Sequence (P49146 whole entry): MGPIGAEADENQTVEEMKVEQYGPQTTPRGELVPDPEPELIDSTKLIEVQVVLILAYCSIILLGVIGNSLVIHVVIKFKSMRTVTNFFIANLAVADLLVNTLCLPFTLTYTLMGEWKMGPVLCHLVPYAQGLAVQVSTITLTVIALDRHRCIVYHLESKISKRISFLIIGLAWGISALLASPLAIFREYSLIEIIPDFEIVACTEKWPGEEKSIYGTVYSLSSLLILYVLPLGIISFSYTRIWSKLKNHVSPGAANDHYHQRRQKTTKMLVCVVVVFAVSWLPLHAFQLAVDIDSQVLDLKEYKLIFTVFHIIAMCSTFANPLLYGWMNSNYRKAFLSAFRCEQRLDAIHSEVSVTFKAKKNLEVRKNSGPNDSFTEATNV
Test: RBA: [125I]-PYY displacement, hY2R/CHO membranes
Starred links: 1 amine or outer side, 2 acyl side, 3 side chain; linkers in the order of their positions; H or OH if unused. Non-standard residues stand in square brackets, D forms with d. *: point of attachment. Asn(Me) = N-omega-methylasparagine, CNC(=O)C[C@H](N[*:1])C(=O)[*:2]; Cyclohexanecarbonyl = O=C(C1CCCCC1)*; tBuAla = CC(C)(C)C[C@H](N)C(=O)O; 3Pal = N[C@@H](Cc1cccnc1)C(=O)O; 4Pal = N[C@@H](Cc1ccncc1)C(=O)O; Cha = N[C@@H](CC1CCCCC1)C(=O)O; Isobutyryl = CC(C)C(=O)*; Abu = CC[C@H](N)C(=O)O; Aib = CC(C)(N)C(=O)O
valueKind: IC50 Ratio (vs PYY(3-36))
// no unit string in output, number only

For the binder Isobutyryl-E[dP]R[4Pal][Cha][tBuAla]NK[Aib]TRQR[Cha]-NH2 (SMILES CC(C)C(=O)N[C@@H](CCC(=O)O)C(=O)N1CCC[C@@H]1C(=O)N[C@@H](CCCNC(=N)N)C(=O)N[C@@H](Cc1ccncc1)C(=O)N[C@@H](CC1CCCCC1)C(=O)N[C@@H](CC(C)(C)C)C(=O)N[C@@H](CC(N)=O)C(=O)N[C@@H](CCCCN)C(=O)NC(C)(C)C(=O)N[C@H](C(=O)N[C@@H](CCCNC(=N)N)C(=O)N[C@@H](CCC(N)=O)C(=O)N[C@@H](CCCNC(=N)N)C(=O)N[C@@H](CC1CCCCC1)C(N)=O)[C@@H](C)O) [Isobutanoyl-[Glu23, D-Pro24, Pya(4)26, Cha27,36, Leu(Me)28, Lys30, Aib31]-PYY(23-36)] , give its measured IC50 Ratio (vs PYY(3-36)) value.
0.43

Note down IC50 Ratio (vs PYY(3-36)) recorded for Piperidinocarbonyl-E[dP]R[4Pal][Cha][Aib]NK[Aib]TRQR[Cha]-NH2 [Piperidinocarbonyl-[Glu23, D-Pro24, Pya(4)26, Cha27,36, Aib28,31, Lys30]-PYY(23-36)]
3.3

Indicate the recorded IC50 Ratio (vs PYY(3-36)) value for this binder: Cyclohexanecarbonyl-RH[Cha]I[Asn(Me)]LITRQR[Cha]-NH2 (SMILES CC[C@H](C)[C@H](NC(=O)[C@H](CC1CCCCC1)NC(=O)[C@H](Cc1c[nH]cn1)NC(=O)[C@H](CCCNC(=N)N)NC(=O)C1CCCCC1)C(=O)N[C@@H](CC(=O)NC)C(=O)N[C@@H](CC(C)C)C(=O)N[C@H](C(=O)N[C@H](C(=O)N[C@@H](CCCNC(=N)N)C(=O)N[C@@H](CCC(N)=O)C(=O)N[C@@H](CCCNC(=N)N)C(=O)N[C@@H](CC1CCCCC1)C(N)=O)[C@@H](C)O)[C@@H](C)CC) [Cyclohexanecarbonyl-[Cha27,36, Ile28,31, Asn(Me)29]-PYY(25-36)]
76

State, in one line, measured IC50 Ratio (vs PYY(3-36)) of Isobutyryl-R[Abu][Cha][Cha]NL[3Pal]TRQR[Cha]-NH2 (SMILES CC[C@H](NC(=O)[C@H](CCCNC(=N)N)NC(=O)C(C)C)C(=O)N[C@@H](CC1CCCCC1)C(=O)N[C@@H](CC1CCCCC1)C(=O)N[C@@H](CC(N)=O)C(=O)N[C@@H](CC(C)C)C(=O)N[C@@H](Cc1cccnc1)C(=O)N[C@H](C(=O)N[C@@H](CCCNC(=N)N)C(=O)N[C@@H](CCC(N)=O)C(=O)N[C@@H](CCCNC(=N)N)C(=O)N[C@@H](CC1CCCCC1)C(N)=O)[C@@H](C)O) [Isobutanoyl-[Abu26, Cha27,28,36, Pya(3)31]-PYY(25-36)]
25

Give IC50 Ratio (vs PYY(3-36)) for Isobutyryl-R[Abu]G[Cha]NL[Aib]TRQR[Cha]-NH2 (SMILES CC[C@H](NC(=O)[C@H](CCCNC(=N)N)NC(=O)C(C)C)C(=O)NCC(=O)N[C@@H](CC1CCCCC1)C(=O)N[C@@H](CC(N)=O)C(=O)N[C@@H](CC(C)C)C(=O)NC(C)(C)C(=O)N[C@H](C(=O)N[C@@H](CCCNC(=N)N)C(=O)N[C@@H](CCC(N)=O)C(=O)N[C@@H](CCCNC(=N)N)C(=O)N[C@@H](CC1CCCCC1)C(N)=O)[C@@H](C)O) [Isobutanoyl-[Abu26, Gly27, Cha28,36, Aib31]-PYY(25-36)]
70

FYI, the data here is from patent US20120172293A1.
